B1: RSPH3 (parent)
chain: QRLEEQERRHREEKERRKKQQWEI

Variants of: B1
Test: protein stability index of a GFP-peptide fusion (GPS, HEK-293T) (PSI 1-6); higher = more stable;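 note: lentivirally expressed fusions sorted by FACS into six bins by GFP to DsRed ratio, PSI derived from sequencing read proportions per bin multiplied by bin number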
Conditions: c terminus: a fixed tail appended
protein stability index reference
assayReadout: protein stability index

In [3]: df
Out[3]:
   variantlabel             assayreadout  quantitativeresult
0           E7D  protein stability index                4.04
1          E13S  protein stability index                4.02
2           R8W  protein stability index                4.09
3          R16F  protein stability index                4.06
4          K19W  protein stability index                3.89

Data origin, for the record: the supplement of paper PMC10567573
